Here the recorded Inhibition is given for each entry.
- Tested on: HepG2
- method.description: GSK_TCMDC: Percent inhibition of human HepG2 cell line. Test compounds present at 10uM.
- Type: functional
quantity: Inhibition (%)

# mol.smiles, uom, obs.value
measured = [
    ("Cc1cccc2nc(-c3ccc(-c4cccc(NC(=O)Nc5ccc(F)c(F)c5F)c4)cc3)[nH]c12", "%", 40),
    ("CCC(=O)c1ccc(-c2ccc(=O)n(CC(=O)N(CCN(CC)CC)Cc3ccc(-c4ccc(C(F)(F)F)cc4)cc3)n2)cc1", "%", 91),
    ("COc1ccc(C(=O)C2CCN(CCCCNC(=O)c3ccc(NC(=O)c4cc(Cl)cc(Cl)c4)cc3)CC2)cc1", "%", 35),
    ("O=C(/C=C/c1ccc2ccccc2c1)NCC1(c2ccc(-c3ccccc3)cc2)CCOCC1", "%", 9),
    ("CS(=O)(=O)Nc1ccc(-c2ccc3ccnc(N)c3c2)cc1.O=C(O)C(F)(F)F", "%", 31),
]

---

Here the recorded Inhibition is given for each entry.
- Test system: Plasmodium falciparum
- method.description: GSK_TCMDC: Inhibition of Plasmodium falciparum Dd2 in whole red blood cells, using parasite LDH activity as an index of growth. Test compounds present at 2uM
- Type: functional

# molecule, Inhibition [%]
measured = [
    ("Cc1nc(C)n(CC(=O)Nc2cccc(-c3cccc(-c4nc5cc(C(F)(F)F)ccc5[nH]4)c3)c2)n1", 96),
    ("Br.CC1(C)N=C(N)N=C(N)N1OCc1cccc(C#N)c1", 2),
    ("c1ccc2c(CNc3ccnc(NCc4cccc5ccccc45)n3)cccc2c1", 71),
    ("COC(=O)c1ccc(CCC(C)NCC(O)c2cccc(Cl)c2)cc1.Cl (centres undefined)", 94),
    ("Cc1ccc(C2=NNC3(S2)C(=O)N(C)c2ccccc23)cc1 (centres undefined)", 12),
    ("CCOC(=O)c1nc(-c2cc(Cl)nc(Cl)c2)[nH]c1NC(=S)NCc1ccc(NS(C)(=O)=O)cc1", 98),
    ("O=C(Nc1ccc(S(=O)(=O)NCCCN2CCOCC2)cc1)c1cc(-c2ccccc2)[nH]n1", 29),
    ("c1ccc(-c2cccnn2)cc1", 6),
    ("CC(Nc1nc(Nc2ccc(F)cc2)nc(SCC(N)=O)n1)c1ccccc1 (centres undefined)", 87),
    ("Cc1cc2nc(-c3ccc(OCC(=O)NCc4ccc(C(C)(C)C)cc4)cc3)[nH]c2cc1C", 0),
    ("FC(F)(F)c1cccc(CNCC2CCN(CC3CCCCC3)CC2)c1.O=C(O)C(F)(F)F", 24),
    ("COc1cc2nc(Cl)nc(Nc3ccncc3)c2cc1OC.Cl", 33),
    ("CCCCN(C)CC#Cc1ccc(-c2ccc3[nH]c(C)c(Br)c(=O)c3c2)cn1", 93),
    ("CCC[C@@H]([C@@H](CC(C)C)C(=O)N[C@@H](CCCCNC(=O)c1ccccn1)C(=O)Nc1nccs1)N(O)C=O", 100),
    ("Br.Cc1cc(Br)c(OCCCON2C(=N)N=C(N)NC2(C)C)c(Br)c1", 97),
    ("Cc1[nH]c(C)c(-c2ccc(-c3cc(C(F)(F)F)cc(C(F)(F)F)c3)nc2)c(=O)c1Br", 96),
    ("CCCCCNc1nc2nc(N)nc(N)c2nc1-c1ccccc1.Cl", 0),
    ("CC(CN(C)C)C(=O)Nc1cccc(-c2cccc(-c3nc4ccccc4[nH]3)c2)c1 (centres undefined)", 25),
    ("CCCCCN1CCC(NS(=O)(=O)c2ccc(C(=O)Nc3cccc(C(F)(F)F)c3)cc2)C1.O=C(O)C(F)(F)F (centres undefined)", 0),
]

---

- System: Plasmodium falciparum
- method.description: GSK_TCMDC: Inhibition of Plasmodium falciparum Dd2 in whole red blood cells, using parasite LDH activity as an index of growth. Test compounds present at 2uM
- Type: functional
Values of Inhibition greater than or equal to 50% map to satisfied; values below map to not satisfied.

# molecule, classification
measured = [
    ("Cc1ccccc1C1CCN(C2CCC(NC(=O)c3ccc(-c4cccs4)s3)CC2)CC1 (stereo not given)", "satisfied"),
    ("CS(=O)(=O)CCNCc1cc(-c2cc3ncnc(Nc4ccc(OCc5cccc(F)c5)c(Cl)c4)c3s2)cs1", "not satisfied"),
    ("Cc1ccc(Sc2ccc(NC(=O)CN3CCN(C(=O)c4ccco4)CC3)cc2)cc1C", "satisfied"),
    ("NC1CCCN(Cc2cccc(-c3ccc(-c4nc5ccccc5[nH]4)cc3)c2)C1.O=C(O)C(F)(F)F (stereo not given)", "satisfied"),
    ("CCOC(=O)CN(c1ccc(Br)cc1OCCOc1cc(Br)ccc1N(CC(=O)OCC)C(C)C(=O)OCC)C(C)C(=O)OCC (stereo not given)", "not satisfied"),
]

---

- System: Plasmodium falciparum
- method.description: GSK_TCMDC: Inhibition of Plasmodium falciparum 3D7 in whole red blood cells, using parasite LDH activity as an index of growth. Test compounds present at 2uM
- Type: functional
quantity: Inhibition (%)

# compound, quantity, obs.value
records = [
    ("O=C(Nc1cc(C(F)(F)F)cc(C(F)(F)F)c1)c1cc(C(F)(F)F)cc(C(F)(F)F)c1", "Inhibition", 100),
    ("Cc1ccccc1C1CCN(C2CCC(NC(=O)/C=C/c3c[nH]c4ccccc34)CC2)CC1 (configuration not stated)", "Inhibition", 100),
    ("CCCNCc1ccc(-c2ccc(CN(CCOC)C(=O)CCCOCc3ccccc3)cc2)nc1.O=C(O)C(F)(F)F", "Inhibition", 93),
    ("O=C(NCCc1ccccc1)N(Cc1ccccc1-c1cccc(CNCc2ccc3c(c2)OCO3)c1)C1CCN(Cc2ccccc2)CC1.O=C(O)C(F)(F)F", "Inhibition", 93),
    ("O=C(NCc1ccccc1)Nc1cccc(-c2cccc(-c3nc4cc(C(F)(F)F)ccc4[nH]3)c2)c1", "Inhibition", 95),
    ("Fc1ccc2[nH]c(-c3cccc(-c4cccc(CN5CCN(c6cnccn6)CC5)c4)c3)nc2c1.O=C(O)C(F)(F)F", "Inhibition", 93),
    ("Cc1cccc2nc(-c3cccc(-c4cccc(NC(=O)CN5CCN(C)CC5)c4)c3)[nH]c12", "Inhibition", 100),
]

---

- System: Plasmodium falciparum
- method.description: GSK_TCMDC: Inhibition of Plasmodium falciparum Dd2 in whole red blood cells, using parasite LDH activity as an index of growth. Test compounds present at 2uM
- Assay type: functional
Here the recorded Inhibition is given for each entry.
quantity: Inhibition

# mol.smiles, tested.system, obs.value
measured = [
    ("Cc1nc(NC(=N)N)nc2cc3c(cc12)CCC3.Cl", "Plasmodium falciparum", "58%"),
    ("CNc1nc(N/N=C/c2cc([N+](=O)[O-])c(Cl)cc2Cl)nc(Nc2cccc(C(F)(F)F)c2)n1", "Plasmodium falciparum", "97%"),
    ("O=C(/C=C/c1ccc(-c2ccccc2)cc1)NCCCCCN1CCC(c2c[nH]c3ccccc23)CC1", "Plasmodium falciparum", "23%"),
]

---

- System: Plasmodium falciparum
- method.description: GSK_TCMDC: Inhibition of Plasmodium falciparum Dd2 in whole red blood cells, using parasite LDH activity as an index of growth. Test compounds present at 2uM
- Format: functional
Please note: Inhibition exactly at 30% is criterion not met. Only values below 30% get criterion met.

# compound, classification
rows = [
    ("Br.CCc1c(CCNCCCCCCNCCc2ccc(Br)cc2)ccc(O)c1O", "criterion met"),
    ("Cc1cccc2nc(-c3cccc(-c4cccc(NC(=O)c5cccnc5Cl)c4)c3)[nH]c12", "criterion not met"),
    ("CC1CN(S(=O)(=O)c2ccc(NC(=O)c3cc(-c4ccccc4O)n[nH]3)cc2)CC(C)O1 (stereo not given)", "criterion not met"),
    ("Cc1cc(CNCCCCCCCNCc2ccc(Cl)cc2)ccc1O", "criterion met"),
    ("CC(C)(CNC(=O)[C@H]1CCCN1)c1nc(-c2ccc(Cl)c(O)c2)c(-c2ccncc2)[nH]1.Cl", "criterion not met"),
]

---

- System: HepG2
- method.description: GSK_TCMDC: Percent inhibition of human HepG2 cell line. Test compounds present at 10uM.
- Format: functional
Here the recorded Inhibition is given for each entry.

# mol.smiles, uom, Inhibition
measured = [
    ("N#Cc1ccc(N2CCN(Cc3cccc(-c4cccc(-c5nc6cc(F)ccc6[nH]5)c4)c3)CC2)nc1.O=C(O)C(F)(F)F", "%", 26),
    ("O=C(O)c1cc(C(F)(F)F)co1", "%", 0),
    ("Cc1ccc(NC(=O)Nc2ccc(Cl)c(C(F)(F)F)c2)cc1-c1ccc(C(=O)Nc2ccncc2)cc1", "%", 77),
    ("Cc1ccc(NS(=O)(=O)c2cccs2)cc1-c1cccc(C(=O)Nc2ccc(F)cc2)c1", "%", 38),
    ("Nn1c(=O)oc2ccc(Cl)cc2c1=O", "%", 4),
    ("COc1cc(CN2CCC(CO)(Cc3cccc(C(F)(F)F)c3)CC2)c(Cl)cc1O", "%", 12),
    ("Cc1cccc(Cl)c1Nc1nnc(-c2cccc(C(=O)NC[C@@H]3CC[C@H]4C[C@@H]3C4(C)C)c2)o1", "%", 2),
    ("CN(C)Cc1cccc(-c2ccc3ccnc(N)c3c2)c1", "%", 21),
    ("CCCCCn1c(Sc2ccc(C#N)c([N+](=O)[O-])c2)nnc1-c1cc(OC)cc(OC)c1", "%", 17),
    ("N#CCCN1CCN(Cc2cccc(-c3ccc(-c4nc5cc(C(F)(F)F)ccc5[nH]4)cc3)c2)CC1.O=C(O)C(F)(F)F", "%", 23),
]
